- target or test system: recombinant human Myt1 (Homo sapiens (Human))
- protocol description: Myt1 enzymatic assay (ADP-Glo kinase assay)
- condition parameters: recombinant human Myt1 18 nM, ATP 10 μM
- Protocol: Detection of Myt1 kinase activity utilized a recombinant human Myt1 kinase assay measuring the hydrolysis of ATP using a commercially available ADP-Glo Assay (ADP-Glo™ Kinase Assay from Promega, 10 000 assays, #V9102). […] Luminescence was read using the Envision (250 ms integration). The IC50 and the % max inhibition were calculated for each inhibitor compound tested.
Mark Yes for IC50 under 40 nM, No if at or over.

For orientation, consider the following solved cases.
record smiles: Nc1c(-c2cccc3[nH]ncc23)cc(-c2cnccn2)c2nc[nH]c(=O)c12
class assignment: No
--
record smiles: Nc1c(-c2cccc3[nH]ncc23)cc(Br)c2nc(-c3ccc(N4CCC(C(=O)O)CC4)nc3)[nH]c(=O)c12
class assignment: Yes
--
record smiles: Nc1c(-c2cccc3[nH]ncc23)cc(-c2cccc(OCCN3CCCC3)n2)c2nc(-c3ccncc3)[nH]c(=O)c12
class assignment: Yes
--
record smiles: Cc1cccc(-c2nc3c(-c4nccs4)cc(-c4cccc5[nH]ncc45)c(N)c3c(=O)[nH]2)c1
class assignment: Yes
--
record smiles: Nc1c(-c2cccc3[nH]ncc23)cc(-c2cnn(C3CCOCC3)c2)c2nc(-c3ccncc3)[nH]c(=O)c12
class assignment: Yes

Exercise: Item `Nc1c(-c2cccc3[nH]ncc23)cc(-c2ncc(C(F)(F)F)s2)c2nc[nH]c(=O)c12` : IC50 beneath 40 nM, strictly?
Solution: No

Exercise: Consider `Nc1c(-c2cccc3[nH]ncc23)cc(-c2nccs2)c2nc(Oc3ccccc3)[nH]c(=O)c12` . Does its IC50 lie strictly below 40 nM?
Solution: No

----------
- target or test system: recombinant human Myt1 (Homo sapiens (Human), UniProt Q99640)
- Sequence (Q99640 whole entry): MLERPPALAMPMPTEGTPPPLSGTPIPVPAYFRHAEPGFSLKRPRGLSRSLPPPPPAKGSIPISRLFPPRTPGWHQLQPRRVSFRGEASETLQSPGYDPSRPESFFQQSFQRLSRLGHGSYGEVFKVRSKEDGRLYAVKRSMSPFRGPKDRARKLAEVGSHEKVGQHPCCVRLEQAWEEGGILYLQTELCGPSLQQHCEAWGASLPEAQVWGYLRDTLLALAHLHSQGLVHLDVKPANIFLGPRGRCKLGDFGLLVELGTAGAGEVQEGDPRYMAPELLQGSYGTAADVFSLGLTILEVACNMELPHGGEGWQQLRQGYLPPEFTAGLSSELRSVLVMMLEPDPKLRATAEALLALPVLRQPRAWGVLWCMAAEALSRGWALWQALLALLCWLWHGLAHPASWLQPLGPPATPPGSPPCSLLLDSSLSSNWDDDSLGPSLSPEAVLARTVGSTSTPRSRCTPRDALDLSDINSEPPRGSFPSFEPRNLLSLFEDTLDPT
- protocol description: Myt1 enzymatic assay (ADP-Glo kinase assay)
- condition parameters: recombinant human Myt1 18 nM, ATP 10 μM
parameter: pIC50
Give bare numbers, as −log10 of the molar value.

Some solved entries appear below for comparison.
record smiles: Cc1ccc(O)cc1-c1cc(-c2ncc(C#N)s2)c2c(c1N)C(=O)NC2
pIC50: 6.75
--
record smiles: CC1(O)CCN(c2ccc(-c3nc4c(Br)cc(-c5cccc6[nH]ncc56)c(N)c4c(=O)[nH]3)cn2)CC1
pIC50: 7.96
--
record smiles: Cc1ccc(O)cc1-c1cc(-c2ncc(C(=O)N(C)C)s2)c2c(c1N)C(=O)NC2
pIC50: 6.53
--
record smiles: Nc1c(-c2cccc3[nH]ncc23)cc(-c2ccns2)c2nc[nH]c(=O)c12
pIC50: 8.40
--
record smiles: Nc1c(-c2cccc3[nH]ncc23)cc(-c2cc(F)cc(F)c2)c2nc[nH]c(=O)c12
pIC50: 7.18

Please go through the list and note pIC50 for each compound.
1. Nc1ccc(-c2nc3c(-c4nccs4)cc(-c4cccc5[nH]ncc45)c(N)c3c(=O)[nH]2)cn1
2. Nc1c(-c2cccc3[nH]ncc23)cc(C2CC2)c2nc(-c3cccnc3)[nH]c(=O)c12
3. Cc1ccc2[nH]ncc2c1-c1cc(-c2cccc(OC3CCOCC3)n2)c2nc[nH]c(=O)c2c1N
4. Nc1c(-c2cccc3[nH]ncc23)cc(-c2nccs2)c2nc(-c3cccnc3)[nH]c(=O)c12
5. Cc1ccc2[nH]ncc2c1-c1cc(-c2cccc(F)n2)c2nc[nH]c(=O)c2c1N

Solution:
1: 8.30; 2: 8.15; 3: 8.15; 4: 8.40; 5: 7.77

Please give pIC50 for each item listed below.
1. CS(=O)(=O)c1ccc(-c2nc3c(-c4nccs4)cc(-c4cccc5[nH]ncc45)c(N)c3c(=O)[nH]2)cc1
2. Nc1c(-c2cccc3[nH]ncc23)cc(Br)c2nc(-c3ccc(N4CCN(CCO)CC4)nc3)[nH]c(=O)c12
3. Cc1ccc(O)cc1-c1cc(Br)c2nc[nH]c(=O)c2c1N
4. N#Cc1ccc(-c2nc3c(-c4nccs4)cc(-c4cccc5[nH]ncc45)c(N)c3c(=O)[nH]2)cc1
5. Nc1c(-c2cccc3[nH]ncc23)cc(-c2cccc(OC[C@@H]3CCCO3)n2)c2nc(-c3ccncc3)[nH]c(=O)c12

Solution:
1. 8.22
2. 7.12
3. 7.39
4. 7.05
5. 8.40
